Study target: TNNI3K (human)
Test method notes: KINOMEscan competition binding
Conditions: compound 10.0 µM
Give measured kinase still bound, per cent of control for each item. Keep answers brief.
Answers are plain numbers, in %.

structure_smiles_string=O=C1Nc2cc(Br)ccc2/C1=C1/Nc2ccccc2/C1=N\O study_target="TNNI3K (human)" reported_measurement=68
structure_smiles_string=COc1ccc(CNC(=O)Nc2ncc([N+](=O)[O-])s2)cc1 study_target="TNNI3K (human)" reported_measurement=100
structure_smiles_string=Cn1cc(C2=C(c3ccc(Cl)cc3Cl)C(=O)NC2=O)c2ccccc21 study_target="TNNI3K (human)" reported_measurement=80

Return kinase still bound, per cent of control (reported value) for this compound: Cc1cnc(-c2cnc(NCCNc3ccc(C#N)cn3)nc2-c2ccc(Cl)cc2Cl)[nH]1
100
